procedureDetails: Neurotoxicity against human SH-SY5Y cells assessed as cell survival rate at 5 to 20 uM by CCK-8 assay relative to control
Type: toxicity, cell-based
measurementSetup: dose 5-20 µM, read-out: Survival
readout: viability

State its viability for this compound: `O=C(NO)c1cc(-c2ccc(Br)cc2)n(-c2ccc(Cl)cc2)n1`
> 78%

====

procedureDetails: AUC (0 to t) in male ICR mouse at 10 mg/kg, ip measured upto 480 mins by LC-MS/MS analysis
Format: ADME, organism-based
measurementSetup: in vivo
readout: AUC(0-t) at 8 h (ng·h/mL)
Unit ng·h/mL implied. Number only.

State its AUC(0-t) at 8 h for this compound: `O=C(NO)c1cc(-c2ccc(Br)cc2)n(-c2ccc(Cl)cc2)n1`
3640
